I'd appreciate it if you could supply Ratio OD(Variant)/OD(WT) values for the items below.
# TESTED TARGET: HRgpA-6H (Porphyromonas gingivalis) (UniProt P28784)
# EXPERIMENT: ELISA, coated HRgpA-6H
Give the figure by itself; no unit, no explanation.

Inquiry: Name the recorded Ratio OD(Variant)/OD(WT) for KB001 mouse Fab VL S53W (Fab, V domains shown) VH: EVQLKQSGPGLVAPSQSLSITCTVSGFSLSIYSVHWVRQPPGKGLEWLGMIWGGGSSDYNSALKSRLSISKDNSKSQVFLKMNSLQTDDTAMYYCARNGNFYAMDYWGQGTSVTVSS VL: QIVLTQSPAIMSASLGERVTMTCTASSSVSSSFLHWYQQKPGSSPQLWIYSTWNLASGVPARFSGSGSGTSYSLTISSMEAEDAATYYCHQYHHSPYIYTFGGGTKLEIK .
Reply text: 0.923

Inquiry: What do we get for KB001 mouse Fab VH S57A (Fab, V domains shown) VH: EVQLKQSGPGLVAPSQSLSITCTVSGFSLSIYSVHWVRQPPGKGLEWLGMIWGGGSADYNSALKSRLSISKDNSKSQVFLKMNSLQTDDTAMYYCARNGNFYAMDYWGQGTSVTVSS VL: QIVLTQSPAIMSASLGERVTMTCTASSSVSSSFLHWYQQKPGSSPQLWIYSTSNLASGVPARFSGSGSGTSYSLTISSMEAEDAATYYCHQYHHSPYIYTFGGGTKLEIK ?
Reply text: 1.05

Inquiry: What do we get for KB001 mouse Fab VH S61N (Fab, V domains shown) VH: EVQLKQSGPGLVAPSQSLSITCTVSGFSLSIYSVHWVRQPPGKGLEWLGMIWGGGSSDYNNALKSRLSISKDNSKSQVFLKMNSLQTDDTAMYYCARNGNFYAMDYWGQGTSVTVSS VL: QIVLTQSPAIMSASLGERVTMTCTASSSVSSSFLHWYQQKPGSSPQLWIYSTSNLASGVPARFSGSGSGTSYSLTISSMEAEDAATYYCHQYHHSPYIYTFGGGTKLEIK ?
Reply text: 1.09

Inquiry: What do we get for KB001 mouse Fab VH S30F (Fab, V domains shown) VH: EVQLKQSGPGLVAPSQSLSITCTVSGFSLFIYSVHWVRQPPGKGLEWLGMIWGGGSSDYNSALKSRLSISKDNSKSQVFLKMNSLQTDDTAMYYCARNGNFYAMDYWGQGTSVTVSS VL: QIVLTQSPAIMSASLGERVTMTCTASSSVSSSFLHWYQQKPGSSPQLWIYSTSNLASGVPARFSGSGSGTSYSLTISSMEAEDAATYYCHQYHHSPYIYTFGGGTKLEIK ?
Reply text: 0.868

Inquiry: What do we get for KB001 mouse Fab VL S28K (Fab, V domains shown) VH: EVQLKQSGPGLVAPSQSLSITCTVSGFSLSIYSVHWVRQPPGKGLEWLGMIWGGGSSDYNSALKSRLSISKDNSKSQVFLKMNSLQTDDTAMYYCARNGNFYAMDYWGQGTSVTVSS VL: QIVLTQSPAIMSASLGERVTMTCTASSKVSSSFLHWYQQKPGSSPQLWIYSTSNLASGVPARFSGSGSGTSYSLTISSMEAEDAATYYCHQYHHSPYIYTFGGGTKLEIK ?
Reply text: 1.07
